- procedure_text: In vitro microsomal stability, rat
- Format: in vitro ADME
- measurement_parameters: Table 16, 10 min
recorded_metric: % of compound remaining when incubated in rat liver microsomes (%)
# number only, unit % dropped from output

Task item: Name the recorded % of compound remaining when incubated in rat liver microsomes for CC(C)N1CCN(CCNC(=O)[C@@H]2N[C@H](CC(C)(C)C)[C@]3(C(=O)Nc4cc(Cl)ccc43)[C@H]2c2cccc(Cl)c2F)CC1 .
Reply: 48

Task item: Also CCN1CCN(CCNC(=O)C2NC(CC(C)(C)C)C3(C(=O)Nc4cc(Cl)ccc43)C2c2cccc(Cl)c2F)CC1 (stereo not shown) ?
Reply: 41.1

Task item: Again, but for CC(C)(C)CC1NC(C(=O)NCCN2CCOCC2)C(c2cccc(Cl)c2F)C12C(=O)Nc1cc(Cl)ccc12 (stereo not shown)
Reply: 35.4

Task item: Check CN1CCN(CCNC(=O)C2NC(CC(C)(C)C)C3(C(=O)Nc4cc(Cl)ccc43)C2c2cccc(Cl)c2F)CC1 (stereo not shown) too.
Reply: 65.6

Task item: Field entry: CC(C)(C)C[C@H]1N[C@@H](C(=O)NCCC2CCC(O)C2)[C@H](c2cccc(Cl)c2)[C@@]12C(=O)Nc1cc(Cl)c(F)cc12 (stereo partly shown)
Reply: 44.4

Task item: Lookup CC(C)(C)CC1NC(C(=O)NCCN2CCCC2)C(c2cccc(Cl)c2F)C12C(=O)Nc1cc(Cl)ccc12 (stereo not shown)
Reply: 84.7

Task item: // next record CN1CCC(CCNC(=O)C2NC(CC(C)(C)C)C3(C(=O)Nc4cc(Cl)ccc43)C2c2cccc(Cl)c2F)CC1 (stereo not shown)
Reply: 87.8

###

Would you mind telling me the reported % of compound remaining when incubated in human liver microsomes with NADPH of each entry?
- procedure_text: In vitro microsomal stability, human
- Type: in vitro ADME
- measurement_parameters: human liver microsomes, NADPH, 60 min
API: value field is a number in %; no unit string.

Task item: Field request: % of compound remaining when incubated in human liver microsomes with NADPH | item: CC(C)(C)C[C@H]1N[C@@H](C(=O)NCC[C@H](O)CNC(C)(C)C)[C@H](c2cccc(Cl)c2)[C@@]12C(=O)Nc1cc(Cl)c(F)cc12
Reply: 41.42

Task item: Now the molecule CC(C)(C)C[C@H]1N[C@@H](C(=O)NCCC(C)(O)CO)[C@H](c2cccc(Cl)c2)[C@@]12C(=O)Nc1cc(Cl)c(F)cc12 (stereo partly shown)
Reply: 51.45

Task item: Here is the next molecule: CC(C)(C)C[C@H]1N[C@@H](C(=O)N[C@H]2CC[C@@H](O)C2)[C@H](c2cccc(Cl)c2F)[C@@]12C(=O)Nc1cc(Cl)ccc12
Reply: 0.00

Task item: Again, but for CC(C)(C)C[C@H]1N[C@@H](C(=O)NC2CCC(NS(C)(=O)=O)CC2)[C@H](c2cccc(Cl)c2F)[C@@]12C(=O)Nc1cc(Cl)ccc12 (stereo partly shown) [MI-771]
Reply: 0.00

###

Give measured % of compound remaining when incubated in rat liver microsomes with NADPH for each item. Keep answers brief.
- procedure_text: In vitro microsomal stability, rat
- Format: in vitro ADME
- measurement_parameters: 0 min
Answer with the number, then the unit.

Task item: Can you share its % of compound remaining when incubated in rat liver microsomes with NADPH? I mean this compound: CC(C)(C)C[C@H]1N[C@@H](C(=O)N[C@H]2C[C@@](C)(O)C2)[C@H](c2cccc(Cl)c2F)[C@@]12C(=O)Nc1cc(Cl)ccc12
Reply: 100%

Task item: Continue with CC(C)(C)C[C@H]1N[C@@H](C(=O)N[C@H]2C[C@@H](O)C2)[C@H](c2cccc(Cl)c2F)[C@@]12C(=O)Nc1cc(Cl)ccc12 (stereo in doubt)
Reply: 100%

Task item: CC(C)(C)C[C@H]1N[C@@H](C(=O)NC2CC(O)C2)[C@H](c2cccc(Cl)c2F)[C@@]12C(=O)Nc1cc(Cl)ccc12 (stereo partly shown) ?
Reply: 100%

Task item: CC(O)C(O)CCNC(=O)[C@@H]1N[C@H](CC(C)(C)C)[C@]2(C(=O)Nc3cc(Cl)c(F)cc32)[C@H]1c1cccc(Cl)c1 (stereo partly shown) , same question.
Reply: 100.00%
